Property: melting point

Chemical Structure	melting point
CCN(CC)Cc1ccc(-c2ccnc3ccc(-c4cnc(OC)c(NS(=O)(=O)c5ccc(F)cc5F)c4)cc23)cc1	106 to 108 °C
COc1ncc(-c2ccc3nccc(N4CCCC4)c3c2)cc1NS(=O)(=O)c1ccc(F)cc1F	223 to 225 °C
COc1ncc(-c2ccc3nccc(-c4ccc(Cn5ccnc5)cc4)c3c2)cc1NS(=O)(=O)c1ccc(F)cc1F	108 to 109 °C

For each entry beneath this line, provide reported melting point.
1. O=S(=O)(Nc1cc(-c2ccc3nccc(-n4cncn4)c3c2)cnc1Cl)c1ccc(F)cc1F
2. O=S(=O)(Nc1cc(-c2ccc3nccc(-n4cncn4)c3c2)cnc1Cl)c1ccc(F)cc1
3. COc1ncc(-c2ccc3nccc(-c4ccc(C)cc4)c3c2)cc1NS(=O)(=O)c1ccc(F)cc1F
4. CN(CCO)Cc1ccc(-c2ccnc3ccc(-c4cnc(Cl)c(NS(=O)(=O)c5ccc(F)cc5)c4)cc23)cc1

**A:**
1: 118 to 121 °C; 2: 258 to 261 °C; 3: 175 to 176 °C; 4: 214 to 217 °C

For each entry beneath this line, provide reported melting point.
1. COc1ncc(-c2ccc3nccc(-c4ccc(Cn5cncn5)cc4)c3c2)cc1NS(=O)(=O)c1ccc(F)cc1
2. COc1ncc(-c2ccc3nccc(-n4cncn4)c3c2)cc1NS(=O)(=O)c1ccc(F)cc1
3. CCN(Cc1ccc(-c2ccnc3ccc(-c4cnc(OC)c(NS(=O)(=O)c5ccc(F)cc5F)c4)cc23)cc1)C1CCCCC1
4. COc1ncc(-c2ccc3nccc(-n4cncn4)c3c2)cc1NS(=O)(=O)c1ccc(F)cc1F
5. CCOC(=O)c1ccc(-c2ccnc3ccc(-c4cnc(OC)c(NS(=O)(=O)c5ccc(F)cc5F)c4)cc23)cc1
6. COc1ncc(-c2ccc3nccc(-c4ccc(CN(C)CCO)cc4)c3c2)cc1NS(=O)(=O)c1ccc(F)cc1F

**A:**
["150 to 152 °C", "122 to 124 °C", "87 to 88 °C", "123 to 124 °C", "90 to 92 °C", "84 to 85 °C"]

For each entry beneath this line, provide reported melting point.
1. COC(=O)c1ccc(-c2ccnc3ccc(-c4cnc(OC)c(NS(=O)(=O)c5ccc(F)cc5F)c4)cc23)cc1
2. COc1ncc(-c2ccc3nccc(N4CCOCC4)c3c2)cc1NS(=O)(=O)c1ccc(F)cc1F
3. O=S(=O)(Nc1cc(-c2ccc3nccc(-c4ccc(Cn5cncn5)cc4)c3c2)cnc1Cl)c1ccc(F)cc1
4. COc1ncc(-c2ccc3nccc(Cl)c3c2)cc1NS(=O)(=O)c1ccc(F)cc1F
5. COc1ncc(-c2ccc3nccc(-c4ccc(Cn5cccn5)cc4)c3c2)cc1NS(=O)(=O)c1ccc(F)cc1F
6. COc1ncc(-c2ccc3nccc(-c4ccc(Cn5ccnc5C)cc4)c3c2)cc1NS(=O)(=O)c1ccc(F)cc1F
7. COc1ncc(-c2ccc3nccc(-c4ccc(CN(CCO)CCO)cc4)c3c2)cc1NS(=O)(=O)c1ccc(F)cc1F
8. CN(CCO)Cc1ccc(-c2ccnc3ccc(-c4cnc(Cl)c(NS(=O)(=O)c5ccc(F)cc5F)c4)cc23)cc1

**A:**
69 to 72 °C
219 to 221 °C
235 to 236 °C
171 to 173 °C
93 to 95 °C
110 to 111 °C
90 to 91 °C
132 to 135 °C

**Q:** Look up melting point for this compound: CN(C)Cc1ccc(-c2ccnc3ccc(-c4cnc(Cl)c(NS(=O)(=O)c5ccc(F)cc5F)c4)cc23)cc1
**A:** 160 to 164 °C
